# experimental.system: Cannabinoid receptor 1 (Homo sapiens, UniProt P21554)
# Sequence (P21554 whole entry): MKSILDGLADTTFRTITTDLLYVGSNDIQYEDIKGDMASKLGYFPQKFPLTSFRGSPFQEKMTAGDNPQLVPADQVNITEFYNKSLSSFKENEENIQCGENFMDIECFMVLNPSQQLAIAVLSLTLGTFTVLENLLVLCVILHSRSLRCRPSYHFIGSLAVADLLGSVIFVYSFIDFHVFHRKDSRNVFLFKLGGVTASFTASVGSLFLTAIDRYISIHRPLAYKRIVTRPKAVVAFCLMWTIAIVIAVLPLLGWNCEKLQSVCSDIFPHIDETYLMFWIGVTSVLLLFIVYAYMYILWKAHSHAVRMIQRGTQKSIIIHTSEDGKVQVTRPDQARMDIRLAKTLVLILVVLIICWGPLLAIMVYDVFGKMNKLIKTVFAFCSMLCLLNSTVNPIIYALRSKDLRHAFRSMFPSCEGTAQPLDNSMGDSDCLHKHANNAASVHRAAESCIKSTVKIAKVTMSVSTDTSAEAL
# test.description: Displacement of [3H]CP-55940 form human CB1 receptor expressed in CHO cells
observed.property: IC50 (nM)
Form entry: value (nM) — number only.

Please review the following examples before continuing.
Record summary for Cc1c(C(C)(C)C)s/c(=N\C(=O)c2cccc(Br)c2)n1CC1CC1 : reported IC50 = 53

Record summary for Cc1c(C(C)(C)C)s/c(=N\C(=O)c2ccccc2C(F)(F)F)n1CC1CC1 : reported IC50 = 140

***
Record summary for Cc1ccc(C(F)(F)F)cc1C(=O)/N=c1\sc(C(C)(C)C)c(C)n1CC1CC1 : reported IC50 = 1200

Record summary for Cc1c(C(C)(C)C)s/c(=N\C(=O)c2cc(C(F)(F)F)ccc2F)n1CC1CC1 : reported IC50 = 1500

Record summary for CCOCCn1c(C)c(C(C)(C)C)s/c1=N\C(=O)c1cccc(C(F)(F)F)c1 : reported IC50 = 690

###

Measured remaining at 0.25 h by item
# test.description: Metabolic stability in human liver microsomes assessed as parent compound remaining after 15 mins
# Format: ADME, Microsome
# experimental.setup: read-out: Stability
Form entry: value (%) — number only.

Record summary for Cc1c(C(C)(C)C)s/c(=N\C(=O)c2cccc(N(C)C)c2)n1CC1CC1 : reported remaining at 0.25 h = 44

Then this compound:
Record summary for COc1ccc(C(F)(F)F)cc1C(=O)/N=c1\sc(C(C)(C)C)c(C)n1CC1CC1 : reported remaining at 0.25 h = 85

###

Measured IC50 by item
# experimental.system: Cannabinoid receptor 1 (Homo sapiens, UniProt P21554)
# test.description: Displacement of [3H]CP-55940 form human CB1 receptor expressed in CHO cells
Form entry: value (nM) — number only.

Record summary for COCCn1c(C)c(C(C)(C)C)s/c1=N\C(=O)c1cccc(C(F)(F)F)c1 : reported IC50 = 4100

Record summary for Cc1c(C(C)(C)C)s/c(=N\C(=O)c2cccc(C(F)(F)F)c2)n1CC1CC1 : reported IC50 = 3500

Record summary for COc1ccc(C(F)(F)F)cc1C(=O)/N=c1\sc(C(C)(C)C)c(C)n1CC1CC1 : reported IC50 = 1900

Record summary for Cc1c(C(C)(C)C)s/c(=N\C(=O)c2cc(C(F)(F)F)ccc2Cl)n1CC1CC1 : reported IC50 = 830

Record summary for Cc1c(C(C)(C)C)s/c(=N\C(=O)c2cccc(OC(F)(F)F)c2)n1CC1CC1 : reported IC50 = 1100

// provenance: ChEMBL document CHEMBL1140512
